- TARGET SYSTEM: Beta-secretase 1 (Homo sapiens)
- Sequence (P56817 whole entry): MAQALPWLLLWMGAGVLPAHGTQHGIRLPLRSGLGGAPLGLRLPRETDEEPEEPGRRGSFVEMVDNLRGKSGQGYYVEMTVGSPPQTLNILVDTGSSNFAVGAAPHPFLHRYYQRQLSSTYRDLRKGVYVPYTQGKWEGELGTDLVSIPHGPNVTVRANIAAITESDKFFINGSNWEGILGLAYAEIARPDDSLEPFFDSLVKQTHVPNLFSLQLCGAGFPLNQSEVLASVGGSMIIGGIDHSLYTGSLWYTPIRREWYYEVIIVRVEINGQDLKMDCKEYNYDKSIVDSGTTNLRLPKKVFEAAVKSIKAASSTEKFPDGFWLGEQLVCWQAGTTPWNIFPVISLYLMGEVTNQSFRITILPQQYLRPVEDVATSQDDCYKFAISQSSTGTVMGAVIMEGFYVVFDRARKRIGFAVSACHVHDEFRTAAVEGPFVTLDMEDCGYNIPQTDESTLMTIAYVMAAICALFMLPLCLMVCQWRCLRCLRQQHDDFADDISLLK
- PROTOCOL SUMMARY: Inhibition of BACE1 (unknown origin)
PROPERTY MEASURED: pIC50
As a rule, pIC50 stands for the negative log10 of the concentration, concentration in M.

Lab note: O=C1O[C@@H]2[C@@H](OC(=O)c3cc(O)c(O)c(O)c3-c3c1cc(O)c(O)c3O)[C@H](O)O[C@@H]1COC(=O)c3cc(O)c(O)c(O)c3-c3c(O)c(O)c4oc(=O)c5c(c(O)c(O)c6oc(=O)c3c4c65)-c3c(cc(O)c(O)c3O)C(=O)O[C@@H]21 [PUNICALAGIN] gave pIC50 of 6.39

// sample O=c1oc2c(O)c(O)cc3c(=O)oc4c(O)c(O)cc1c4c23 [ELLAGIC ACID] , its pIC50 was 5.41

Recorded result, COC1Oc2cc(O)ccc2-c2c1oc1cc(O)c(C)c(O)c1c2=O (stereo not drawn) [BOERAVINONE D] , pIC50: 5.32

Lab note: COc1cc2oc3c(c(=O)c2c(O)c1C)-c1ccc(O)cc1OC3O (stereo not drawn) gave pIC50 of 5.37

pIC50 reported for this molecule `COc1cc2c(c(O)c1C)C(=O)[C@@]1(O)c3cccc(OC)c3OC[C@@H]1O2` : 4.21

According to the records, this molecule O=C(OC[C@H]1O[C@@H](OC(=O)c2cc(O)c(O)c(O)c2)[C@H](OC(=O)c2cc(O)c(O)c(O)c2)[C@@H](OC(=O)c2cc(O)c(O)c(O)c2)[C@@H]1OC(=O)c1cc(O)c(O)c(O)c1)c1cc(O)c(O)c(O)c1 [PENTAGALLOYL GLUCOSE] displays pIC50 of 5.42

Short answer for O=C(O[C@@H]1O[C@@H]2COC(=O)c3cc(O)c(O)c(O)c3-c3c(cc(O)c(O)c3O)C(=O)O[C@H]2[C@H](OC(=O)c2cc(O)c(O)c(O)c2)[C@H]1OC(=O)c1cc(O)c(O)c(O)c1)c1cc(O)c(O)c(O)c1 [EUGENIIN] : pIC50 was 5.51
